System: HCoV-OC43
PROTOCOL SUMMARY: Antiviral CPE reduction assay, HCoV-OC43 in HEL299 cells
Type: cell-based, human coronavirus OC43
PARTICULARS: Betacoronavirus 1, OC43, HEL 299, MTS, mean ± SD of two or three independent experiments
PROPERTY MEASURED: EC50

Example cases with answers are listed next.
CCN(CC)CCNc1ncc2c(Nc3cccc4c3CCC4)ncnc2n1 [Compound 7f]; 37.3 µM
C#Cc1cccc(Nc2ncnc3cc(OCCOC)c(OCCO)cc23)c1 [OSI-420, reference compound]; > 100 µM
c1cncc(Nc2ncnc3nc(NC4CC4)ncc23)c1 [Compound 7m]; > 50 µM
C#Cc1cccc(Nc2ncnc3cc(OCCOC)c(OCCOC)cc23)c1 [Erlotinib, erlotinib, reference compound]; > 100 µM
C#Cc1cccc(Nc2ncnc3cc4c(cc23)OCCOCCOCCO4)c1 [Icotinib, icotinib, reference compound]; > 100 µM

Go through the list and state EC50 for each entry.
1. CN1CCN(c2ncc3c(Nc4cccc5c4CCC5)ncnc3n2)CC1 [Compound 7d]
2. CCC(CC)COC(=O)[C@H](C)N[P@](=O)(OC[C@H]1O[C@@](C#N)(c2ccc3c(N)ncnn23)[C@H](O)[C@@H]1O)Oc1ccccc1 [Remdesivir, remdesivir, reference compound]
3. C#Cc1cccc(Nc2ncnc3nc(N4CCN(C)CC4)ncc23)c1 [Compound 7h]
4. CCN(CC)CCNc1ncc2c(Nc3cccc4c3CCCC4)ncnc2n1 [Compound 7b]
5. C#Cc1cccc(Nc2ncnc3nc(NCCN(CC)CC)ncc23)c1 [Compound 7i]

1. > 50 µM
2. 0.14 µM
3. > 50 µM
4. 34.7 µM
5. ≥ 39.8 µM

Parameters: items (list). Returns: EC50 for each item.
1. C#Cc1cccc(Nc2ncnc3nc(NC4CC4)ncc23)c1 [Compound 7j]
2. c1cc2c(c(Nc3ncnc4nc(NC5CC5)ncc34)c1)CCCC2 [Compound 7c]
3. CN1CCN(c2ncc3c(Nc4cccnc4)ncnc3n2)CC1 [Compound 7k]
4. CC#CC(=O)Nc1ccc2ncnc(Nc3cccc(Br)c3)c2c1 [CL-387785, reference compound]

["> 50 µM", "> 50 µM", "> 50 µM", "1.8 µM"]

For every item in the list below, what is its measured EC50?
1. CN(C)CCNc1ncc2c(Nc3cccc4c3CCCC4)ncnc2n1 [Compound 7a]
2. CN(C)CCNc1ncc2c(Nc3cccc4c3CCC4)ncnc2n1 [Compound 7e]

27.7 µM
> 50 µM

----------
PROTOCOL SUMMARY: in vitro
PARTICULARS: dog
PROPERTY MEASURED: CC50

Example entries begin here.
CCN(CC)CCNc1ncc2c(Nc3cccc4c3CCC4)ncnc2n1; > 50 µM
CN1CCN(c2ncc3c(Nc4cccc5c4CCC5)ncnc3n2)CC1; > 50 µM
C#Cc1cccc(Nc2ncnc3cc(OCCOC)c(OCCOC)cc23)c1 [Erlotinib, erlotinib, reference compound]; > 100 µM

Next compound, CC50 to be filled in.
Name the recorded CC50 of the compound listed here: `C#Cc1cccc(Nc2ncnc3nc(NCCN(CC)CC)ncc23)c1`
> 50 µM

----------
Assign EC50 to each entry below.
System: respiratory syncytial virus A (RSV A Long)
PROTOCOL SUMMARY: Antiviral CPE reduction assay, RSV A Long in Hep2 cells
Format: cell-based
PARTICULARS: human respiratory syncytial virus, HEp-2; Hep2 cells; CPE reduction, MTS; mean ± SD of two or three independent experiments; read-out: Antiviral Activity (EC50) RSV A Long

Here is how some compounds turned out for EC50.
C#Cc1cccc(Nc2ncnc3nc(N4CCN(C)CC4)ncc23)c1; > 50 µM
CCC(CC)COC(=O)[C@H](C)N[P@](=O)(OC[C@H]1O[C@@](C#N)(c2ccc3c(N)ncnn23)[C@H](O)[C@@H]1O)Oc1ccccc1 [Remdesivir, remdesivir, reference compound]; 0.008 µM
CCN(CC)CCNc1ncc2c(Nc3cccnc3)ncnc2n1; > 50 µM

Now take the following compound into account.
Using the record for `CCN(CC)CCNc1ncc2c(Nc3cccc4c3CCCC4)ncnc2n1` , state its measured EC50.
> 50 µM

----------
System: HCoV-229E
PROTOCOL SUMMARY: Antiviral CPE reduction assay, HCoV-229E in HEL299 cells
Type: cell-based, human coronavirus 229E
PARTICULARS: Human coronavirus 229E, HEL 299, MTS, mean ± SD of two or three independent experiments
pEC50: −log10 of the molar value.
Mark met for reported pEC50 of 5 or greater; mark not met for anything smaller.

CN1CCN(c2ncc3c(Nc4cccnc4)ncnc3n2)CC1 [Compound 7k]; not met
NC(=O)c1ncn([C@@H]2O[C@H](CO)[C@@H](O)[C@H]2O)n1 [Ribavirin, ribavirin, reference compound]; not met
c1cc2c(c(Nc3ncnc4nc(NC5CC5)ncc34)c1)CCCC2 [Compound 7c]; not met
CN1CCN(c2ncc3c(Nc4cccc5c4CCC5)ncnc3n2)CC1 [Compound 7d]; not met

Quick check, pEC50 >= 5? CCC(CC)COC(=O)[C@H](C)N[P@](=O)(OC[C@H]1O[C@@](C#N)(c2ccc3c(N)ncnn23)[C@H](O)[C@@H]1O)Oc1ccccc1 [Remdesivir, remdesivir, reference compound]
met

Say whether C#Cc1cccc(Nc2ncnc3nc(NC4CC4)ncc23)c1 [Compound 7j] shows pEC50 of 5 or more.
not met

Hi team, for CCN(CC)CCNc1ncc2c(Nc3cccc4c3CCC4)ncnc2n1 [Compound 7f] , is the recorded pEC50 at or above 5?
met

Has C#Cc1cccc(Nc2ncnc3nc(N4CCN(C)CC4)ncc23)c1 [Compound 7h] a recorded pEC50 greater than or equal to 5?
not met

----------
PROTOCOL SUMMARY: in vitro
PARTICULARS: human
Would you kindly list CC50 for each of these compounds?

Reference set (5 entries):
CN1CCN(c2ncc3c(Nc4cccnc4)ncnc3n2)CC1; > 50 µM
C#Cc1cccc(Nc2ncnc3cc4c(cc23)OCCOCCOCCO4)c1 [Icotinib, icotinib, reference compound]; > 100 µM
c1cc2c(c(Nc3ncnc4nc(NC5CC5)ncc34)c1)CCC2; > 50 µM
CCN(CC)CCNc1ncc2c(Nc3cccnc3)ncnc2n1; > 50 µM
CN(C)CCNc1ncc2c(Nc3cccc4c3CCC4)ncnc2n1; > 50 µM

Let's switch to this compound now.
Give CC50 for the following compound: CCC(CC)COC(=O)[C@H](C)N[P@](=O)(OC[C@H]1O[C@@](C#N)(c2ccc3c(N)ncnn23)[C@H](O)[C@@H]1O)Oc1ccccc1 [Remdesivir, remdesivir, reference compound]
> 10 µM

----------
PROTOCOL SUMMARY: in vitro
PARTICULARS: human
PROPERTY MEASURED: CC50

CN1CCN(c2ncc3c(Nc4cccc5c4CCC5)ncnc3n2)CC1; > 50 µM

Give CC50 for all compounds that follow.
1. CCN(CC)CCNc1ncc2c(Nc3cccc4c3CCC4)ncnc2n1
2. CN(C)CCNc1ncc2c(Nc3cccc4c3CCCC4)ncnc2n1
3. c1cncc(Nc2ncnc3nc(NC4CC4)ncc23)c1
4. CCN(CC)CCNc1ncc2c(Nc3cccc4c3CCCC4)ncnc2n1

1: > 50 µM; 2: > 50 µM; 3: > 50 µM; 4: > 50 µM

The following compounds each have a reported value; give each one's CC50.
1. c1cc2c(c(Nc3ncnc4nc(NC5CC5)ncc34)c1)CCCC2
2. C#Cc1cccc(Nc2ncnc3cc(OCCOC)c(OCCOC)cc23)c1 [Erlotinib, erlotinib, reference compound]
3. C=CC(=O)Nc1cccc(Oc2nc(Nc3ccc(N4CCN(C)CC4)cc3OC)ncc2Cl)c1 [WZ4002, reference compound]

1. > 50 µM
2. > 100 µM
3. > 100 µM

// fetch CC50 given entry `C#Cc1cccc(Nc2ncnc3nc(NC4CC4)ncc23)c1`
> 50 µM

----------
Would you kindly list EC50 for each of these compounds?
Tested on: HCoV-NL63
PROTOCOL SUMMARY: Antiviral CPE reduction assay, HCoV-NL63 in Hep3B cells
Format: cell-based, human coronavirus NL63
PARTICULARS: Human coronavirus NL63, MTS, mean ± SD of two or three independent experiments

Examples from the recorded data:
C#Cc1cccc(Nc2ncnc3cc(OCCOC)c(OCCOC)cc23)c1 [Erlotinib, erlotinib, reference compound]; > 100 µM
C#Cc1cccc(Nc2ncnc3nc(NCCN(CC)CC)ncc23)c1; > 50 µM
C#Cc1cccc(Nc2ncnc3cc(OCCOC)c(OCCO)cc23)c1 [OSI-420, reference compound]; > 100 µM
CCN(CC)CCNc1ncc2c(Nc3cccc4c3CCCC4)ncnc2n1; > 50 µM
NC(=O)c1ncn([C@@H]2O[C@H](CO)[C@@H](O)[C@H]2O)n1 [Ribavirin, ribavirin, reference compound]; 39.9 µM

Parameter requested: EC50. Apply to each item below.
1. CN1CCN(c2ncc3c(Nc4cccnc4)ncnc3n2)CC1
2. CC#CC(=O)Nc1ccc2ncnc(Nc3cccc(Br)c3)c2c1 [CL-387785, reference compound]
3. CN(C)CCNc1ncc2c(Nc3cccc4c3CCC4)ncnc2n1

> 50 µM
> 100 µM
> 50 µM
